Can you tell me Difference between the experimental and the predicted values for pIC50 for the items I'm about to list?
- testedSystem: hSULT2A1 (Homo sapiens, UniProt Q06520)
- methodSummary: CoMFA 3D-QSAR model for inhibition of hSULT2A1 by OHPCBs
- statedConditions: CoMFA Model 1
Hey, just send me the number, nothing else.

Report Difference between the experimental and the predicted values for pIC50, nothing else, for this compound: Oc1ccc(-c2cccc(Cl)c2Cl)cc1O [3′,4′-diOHPCB 5, 3′, 4′-dihydroxy-2,3-dichlorobiphenyl] 0.054

Report Difference between the experimental and the predicted values for pIC50, nothing else, for this compound: Oc1c(Cl)cc(-c2ccc(Cl)cc2Cl)cc1Cl [4′-OHPCB 68] 0.056

Report Difference between the experimental and the predicted values for pIC50, nothing else, for this compound: Oc1ccc(-c2ccc(Cl)cc2Cl)cc1Cl [4′-OHPCB 25, 4′-hydroxy-2, 3′, 4-trichlorobiphenyl] 0.084

Report Difference between the experimental and the predicted values for pIC50, nothing else, for this compound: Oc1c(Cl)cc(-c2ccccc2)cc1Cl [4-OHPCB 14, 4-hydroxy-3,5-dichlorobiphenyl] 0.196

Report Difference between the experimental and the predicted values for pIC50, nothing else, for this compound: Oc1c(Cl)cc(-c2ccccc2Cl)cc1Cl [4-OHPCB 34, 4-hydroxy-2′, 3,5-trichlorobiphenyl] 0.199

Report Difference between the experimental and the predicted values for pIC50, nothing else, for this compound: Oc1ccc(-c2ccccc2Cl)cc1Cl [4′-OHPCB 6, 4′-hydroxy-2, 3′-dichlorobiphenyl] 0.108

Report Difference between the experimental and the predicted values for pIC50, nothing else, for this compound: Oc1ccc(-c2ccc(Cl)cc2)cc1 [4′-OHPCB 3, 4′-hydroxy-4-monochlorobiphenyl] 0.026

Report Difference between the experimental and the predicted values for pIC50, nothing else, for this compound: Oc1ccc(-c2ccc(Cl)c(Cl)c2)c(Cl)c1 [4′-OHPCB 33, 4′-hydroxy-2′, 3,4-trichlorobiphenyl] 0.099

* * *

- testedSystem: hSULT2A1 (Homo sapiens, UniProt Q06520)
- Sequence (Q06520 1-285): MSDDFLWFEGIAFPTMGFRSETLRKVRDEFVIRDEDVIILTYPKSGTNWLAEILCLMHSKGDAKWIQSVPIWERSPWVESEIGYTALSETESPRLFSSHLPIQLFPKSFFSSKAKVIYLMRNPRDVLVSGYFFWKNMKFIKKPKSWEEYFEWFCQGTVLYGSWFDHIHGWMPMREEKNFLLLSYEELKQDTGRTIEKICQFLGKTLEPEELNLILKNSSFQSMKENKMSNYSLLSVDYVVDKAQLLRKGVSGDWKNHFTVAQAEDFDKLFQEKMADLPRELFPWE
- methodSummary: Inhibition of the sulfation of DHEA catalyzed by hSULT2A1
- Format: biochemical
- statedConditions: IC50 (inhibition of the sulfation of DHEA catalyzed by hSULT2A1), 1 μM [3H]DHEA, 200 μM PAPS, pH 7.0, 37°C, 10 min; mean ± standard error of the fit
Can you tell me pIC50 for the items I'm about to list?
Lab note — pIC50 values are minus log10 of concentrations in M.

Report pIC50, nothing else, for this compound: Oc1ccc(-c2ccccc2Cl)cc1Cl [4′-OHPCB 6, 4′-hydroxy-2, 3′-dichlorobiphenyl] 5.01

Report pIC50, nothing else, for this compound: Oc1ccc(-c2cccc(Cl)c2Cl)cc1O [3′,4′-diOHPCB 5, 3′, 4′-dihydroxy-2,3-dichlorobiphenyl] 4.80

Report pIC50, nothing else, for this compound: Oc1ccc(-c2ccc(Cl)cc2)c(Cl)c1 [4-OHPCB 8, 4-hydroxy-2, 4′-dichlorobiphenyl] 5.00

Report pIC50, nothing else, for this compound: Oc1ccc(-c2cccc(Cl)c2)cc1Cl [4-OHPCB 11, 4-hydroxy-3, 3′-dichlorobiphenyl] 4.85

Report pIC50, nothing else, for this compound: Oc1ccc(-c2ccc(Cl)c(Cl)c2)cc1 [4′-OHPCB 12, 4′-hydroxy-3,4-dichlorobiphenyl] 4.80

Report pIC50, nothing else, for this compound: Oc1ccc(-c2cc(Cl)ccc2Cl)cc1 [4′-OHPCB 9, 4′-hydroxy-2,5-dichlorobiphenyl] 5.12

Report pIC50, nothing else, for this compound: Oc1ccc(-c2ccc(Cl)cc2)cc1O [3′,4′-diOHPCB 3, 3′, 4′-dihydroxy-4-monochlorobiphenyl] 4.02

Every entry's value here was drawn from paper PMC3196794.
